- system-tested: CYP2C19 (Homo sapiens, UniProt P33261)
- Sequence (P33261 whole entry): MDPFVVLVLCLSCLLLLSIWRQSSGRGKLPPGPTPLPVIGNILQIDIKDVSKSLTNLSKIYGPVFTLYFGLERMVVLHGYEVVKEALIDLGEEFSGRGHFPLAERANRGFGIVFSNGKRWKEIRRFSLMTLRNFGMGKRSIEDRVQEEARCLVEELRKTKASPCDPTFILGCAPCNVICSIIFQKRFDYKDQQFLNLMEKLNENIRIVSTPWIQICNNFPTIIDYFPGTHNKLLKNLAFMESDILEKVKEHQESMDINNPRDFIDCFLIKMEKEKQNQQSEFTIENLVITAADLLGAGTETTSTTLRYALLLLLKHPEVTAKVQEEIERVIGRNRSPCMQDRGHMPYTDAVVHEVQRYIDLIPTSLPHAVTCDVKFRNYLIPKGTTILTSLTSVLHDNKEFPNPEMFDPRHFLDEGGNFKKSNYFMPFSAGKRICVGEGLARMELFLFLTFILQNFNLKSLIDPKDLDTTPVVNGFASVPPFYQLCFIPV
- procedure-text: Reversible CYP inhibition in human liver microsomes
- conditions: human, microsomes, pH 7.4, Percent of Control Activity, CYP 2C19, 39.8 µM, 30-Minute Preincubation
measured-endpoint: activity at 39.8 µM (%)
Numbers only here, please. The scale is %.

Given item COc1cccc2[nH]c(C(=O)N[C@@H](CC(C)C)C(=O)N[C@@H](C[C@@H]3CCNC3=O)C(=O)COP(=O)(O)O)cc12 , the value recorded as its activity at 39.8 µM is 97.7

====

- system-tested: CYP2D6 (Homo sapiens)
- Sequence (P10635 whole entry): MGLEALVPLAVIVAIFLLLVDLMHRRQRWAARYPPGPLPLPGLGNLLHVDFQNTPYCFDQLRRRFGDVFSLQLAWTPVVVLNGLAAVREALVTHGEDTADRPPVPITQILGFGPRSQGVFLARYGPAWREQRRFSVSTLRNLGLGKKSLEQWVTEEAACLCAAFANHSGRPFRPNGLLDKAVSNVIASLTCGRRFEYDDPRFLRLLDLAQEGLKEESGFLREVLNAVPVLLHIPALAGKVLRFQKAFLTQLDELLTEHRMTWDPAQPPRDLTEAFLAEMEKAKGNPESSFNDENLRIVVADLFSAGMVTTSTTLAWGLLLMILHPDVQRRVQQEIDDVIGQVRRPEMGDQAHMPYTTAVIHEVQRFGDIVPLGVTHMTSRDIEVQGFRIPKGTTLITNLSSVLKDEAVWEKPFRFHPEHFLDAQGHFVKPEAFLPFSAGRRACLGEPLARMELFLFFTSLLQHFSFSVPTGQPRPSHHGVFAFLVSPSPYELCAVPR
- procedure-text: Reversible CYP inhibition in human liver microsomes
- conditions: human, microsomes, pH 7.4, Percent of Control Activity, CYP 2D6, 1 µM, 30-Minute Preincubation
measured-endpoint: activity at 1 µM

The reported activity at 1 µM of the molecule COc1cccc2[nH]c(C(=O)N[C@@H](CC(C)C)C(=O)N[C@@H](C[C@@H]3CCNC3=O)C(=O)COP(=O)(O)O)cc12 was 104%
